Provenance of the data: patent US20260258115A1

Provide the reported pKd of each item.
Molecular target: RSV prefusion F (preF), DS-Cav1 (Respiratory Syncytial Virus)
Assay: BLI, IgG on anti-human IgG sensor, 100 nM antigen
// pKd here means minus log10 of the molar concentration (mol/L)

Form field: reported pKd of ADI-41173 (antibody, V domains shown) VH: QVQLVQSGAEMKKPGSSAKVSCKASGGTLSSYAINWVRQAPGQGLEWMGGIIPIFGTTKYAPKFQDRVTITVDESTSTAYMELSSLRSEDTAVYYCSRESSTWDVAHYFDYWGQGTLVTVSS VL: DIVMTQTPSAISASVGDRVTITCRASQGISNYLAWVQQKPGKVPKRLIYGASSLQSGVPSRFSGSGSGTEFTLTISSLQPEDFATYYCLQHNSYPYTFGQGTKVEIK 9.50

Name the recorded pKd for ADI-41193 (antibody, V domains shown) VH: EVQLVESGGGLVKPGMSLRLSCAASGFRFSDHYMNWIRQAPGKGLEWVSYISSSSTYTDYTDSVKGRFTISRDNSKNSVYLQMNSLRAEDTAIYYCARVAPIRHNGDYIDYWGQGTTVTVSS VL: NFMLTQPPSASGTPGQRVTISCTGSSSNIGAGYDVHZYQQIPGTAPKLLIYGNNNRPSGVPDRFSGSKSGTSASLAITGLQTEDEADYYCQSYDRGLSGRVFGTGTKVTVL . 9.13
